target: Cytochrome P450 3A4 (Homo sapiens); assay: Cytochrome panel assay with activity outcomes; conditions: recombinant CYP, pro-luciferin dealkylation, luminescence, p450-cyp3a4; series mostly up to 57.1 µM
Among all 16,000 compounds or so, about 5,100 (32%) were called active. About 25% were inconclusive and are not listed. This is one part of the list.
Reported Property: AC50

Please review the following examples before continuing.
INSERT INTO assay_data (compound, target_system, data_value) VALUES
  ('CC(C)(C)OC(=O)NCCc1nnc(SCC(=O)Nc2cccc(Cl)c2)o1', 'Cytochrome P450 3A4 (Homo sapiens)', '11.2 µM (active)'),
  ('O=C(c1cc(C(F)(F)F)cc(C(F)(F)F)c1)N1CCC2(CCCN(Cc3nccs3)C2)CC1', 'Cytochrome P450 3A4 (Homo sapiens)', '20 µM (active)'),
  ('Cc1ccc(C)c(-c2cc(C(=O)Nc3nccs3)c3ccccc3n2)c1', 'Cytochrome P450 3A4 (Homo sapiens)', '2.82 µM (active)'),
  ('N[C@H](CCC(=O)NCS(=O)(=O)O)C(=O)O', 'Cytochrome P450 3A4 (Homo sapiens)', 'inactive'),
  ('Cc1cccc(CNc2cc(-c3ccc(C(=O)N(C)C)cc3)ncn2)c1', 'Cytochrome P450 3A4 (Homo sapiens)', '3.16 µM (active)');

So for CCOC(=O)C1CN(S(=O)(=O)c2cccc(C(F)(F)F)c2)c2cc(CC(=O)OC)ccc2O1 (stereo not given) , the logged AC50 turned out to be 5.01 µM (active)

So for O=C(CSc1nnc(Cn2nnc3ccccc32)o1)Nc1cccc(Cl)c1 , the logged AC50 turned out to be 8.91 µM (active)

Entry CN(C)C(=O)c1ccc(-c2cc(NCc3cccnc3)ncn2)cc1 , AC50 reported as 15.8 µM (active)

Lookup result for COc1ccc(C(=O)NNC(=O)Cc2ccc(-c3ccccc3)cc2)cc1OC ; measured AC50: 6.31 µM (active)

Briefly, AC50 measured for O=C(c1ccncc1)N1CCC2(CCN(Cc3nccs3)CC2)CC1 : inactive
